system: rat hepatocytes; assay: Hepatocyte assay to determine the metabolic stability; type: in vitro ADME; conditions: after incubation with rat hepatocytes
recorded.endpoint: Fmax, maximum possible bioavailability after oral administration (well-stirred) (%)

INSERT INTO results (molecule, units_label, endpoint_result) VALUES
  ('[C-]#[N+]C1=C(C)N(c2cccc(C(F)(F)F)c2)C(=O)N[C@@H]1c1ccc(C#N)cc1[S@+](C)[O-] (single isomer, unassigned; diastereomer 1) [Example 43 (Diastereomer 1)]', '%', 69),
  ('CC1=C(C(=O)OCCO)[C@@H](c2ccc(C#N)cc2S(C)(=O)=O)N(S(C)(=O)=O)C(=O)N1c1cccc(C(F)(F)F)c1', '%', 72),
  ('CN1CC2=C(C1=O)[C@@H](c1ccc(C#N)cc1S(C)(=O)=O)N(C)C(=O)N2c1cccc(C(F)(F)F)c1', '%', 75);

====

Biological target: human neutrophil elastase (HNE) (Homo sapiens (Human), UniProt P08246)
Sequence (P08246 30-267): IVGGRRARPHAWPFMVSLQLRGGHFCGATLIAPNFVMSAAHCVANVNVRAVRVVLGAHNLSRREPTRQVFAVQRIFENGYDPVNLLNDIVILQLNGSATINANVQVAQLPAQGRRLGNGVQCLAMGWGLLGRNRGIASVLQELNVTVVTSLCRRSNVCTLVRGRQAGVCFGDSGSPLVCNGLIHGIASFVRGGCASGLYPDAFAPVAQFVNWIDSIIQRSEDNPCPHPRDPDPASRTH
Assay: In vitro HNE inhibition assay
Conditions: HNE concentration of 80 pM; substrate MeOSuc-Ala-Ala-Pro-Val-AMC; 37° C. for 2 hours
Description: B-1. In Vitro HNE Inhibition Assay The potency of the compounds of the invention is ascertained in an in vitro inhibition assay. The HNE-mediated amidolytic cleavage of a suitable peptide substrate leads in this connection to an increase in the fluorescent light. The signal intensity of the fluorescent light is directly proportional to the enzyme activity. […]
pIC50: −log10 of the molar value.
recorded.endpoint: pIC50

INSERT INTO results (compound, recorded_endpoint, endpoint_result) VALUES
  ('CC1=C(C#N)[C@@H](c2ccc(C#N)cc2S(C)(=O)=O)N(CC(N)=O)C(=O)N1c1cccc(C(F)(F)F)c1 [Example 22]', 'pIC50', 9.35),
  ('CC1=C(C(=O)OCCO)[C@@H](c2ccc(C#N)cc2S(C)(=O)=O)N(S(C)(=O)=O)C(=O)N1c1cccc(C(F)(F)F)c1 [Example 144]', 'pIC50', '> 9.52'),
  ('CC1=C(C#N)[C@@H](c2ccc(C#N)cc2S(C)(=O)=O)N(C(=O)OCc2ccccc2)C(=O)N1c1cccc(C(F)(F)F)c1 (stereo in doubt) [Example 120]', 'pIC50', '> 9.52'),
  ('CC1=C(C#N)[C@@H](c2ccc(C#N)cc2S(C)(=O)=O)N(CC#N)C(=O)N1c1cccc(C(F)(F)F)c1 [Example 116]', 'pIC50', '> 9.52'),
  ('CC(=O)C1=C(C)N(c2cccc(C(F)(F)F)c2)C(=O)N[C@@H]1c1ccc(C#N)cc1S(C)(=O)=O [Example 2]', 'pIC50', 8.00),
  ('CC1=C(C#N)[C@@H](c2ccc(C#N)cc2S(C)(=O)=O)N(S(=O)(=O)c2cnn(C(F)F)c2C)C(=O)N1c1cccc(C(F)(F)F)c1 [Example 96]', 'pIC50', '> 9.52');

====

tested on: rat hepatocytes; test: Hepatocyte assay to determine the metabolic stability; format: in vitro ADME; details: after incubation with rat hepatocytes
Listed here are compounds together with their documented Fmax, maximum possible bioavailability after oral administration (well-stirred).
recorded.endpoint: Fmax, maximum possible bioavailability after oral administration (well-stirred) (%)

INSERT INTO assay_data (structure_string, endpoint_result) VALUES
  ('CC1=C(C#N)[C@@H](c2ccc(C#N)cc2S(C)(=O)=O)NC(=O)N1c1cccc(C(F)(F)F)c1', 96),
  ('CC1=C(C(N)=O)[C@@H](c2ccc(C#N)cc2S(C)(=O)=O)NC(=O)N1c1cccc(C(F)(F)F)c1', 100),
  ('CC1=C(C#N)[C@@H](c2ccc(C#N)cc2S(C)(=O)=O)N(S(=O)(=O)c2ccccc2OC(F)(F)F)C(=O)N1c1cccc(C(F)(F)F)c1', 90),
  ('CC1=C(C#N)[C@@H](c2ccc(C#N)cc2S(C)(=O)=O)N(S(C)(=O)=O)C(=O)N1c1cccc(C(F)(F)F)c1', 91),
  ('CC1=C(C#N)[C@@H](c2ccc(C#N)cc2S(C)(=O)=O)N(C(=O)NN(CCO)CCO)C(=O)N1c1cccc(C(F)(F)F)c1', 59),
  ('CCS(=O)(=O)N1C(=O)N(c2cccc(C(F)(F)F)c2)C(C)=C(C#N)[C@H]1c1ccc(C#N)cc1S(C)(=O)=O', 91);

====

test system: rat hepatocytes; assay: Hepatocyte assay to determine the metabolic stability; format: in vitro ADME; conditions: after incubation with rat hepatocytes
Listing of entries alongside the reported CLblood, calculated blood clearance (well stirred model).
recorded.endpoint: CLblood, calculated blood clearance (well stirred model) (mL/min/kg)

INSERT INTO measurements (compound, units_label, endpoint_result) VALUES
  ('CC1=C(C(=O)OCCO)[C@@H](c2ccc(C#N)cc2S(C)(=O)=O)N(S(C)(=O)=O)C(=O)N1c1cccc(C(F)(F)F)c1', 'mL/min/kg', 20),
  ('CC1=C(C#N)[C@@H](c2ccc(C#N)cc2S(C)(=O)=O)N(CC(=O)N2CCNC(=O)C2)C(=O)N1c1cccc(C(F)(F)F)c1', 'mL/min/kg', 5),
  ('CCS(=O)(=O)c1cc(C#N)ccc1[C@@H]1C(C#N)=C(C)N(c2cccc(C(F)(F)F)c2)C(=O)N1S(C)(=O)=O', 'mL/min/kg', 15),
  ('CN1CC2=C(C1=O)C(c1ccc(C#N)cc1S(C)(=O)=O)N(C(=O)NCCO)C(=O)N2c1cccc(C(F)(F)F)c1 (racemic)', 'mL/min/kg', 3.3),
  ('CC1=C(C#N)[C@@H](c2ccc(C#N)cc2S(C)(=O)=O)N(C)C(=O)N1c1cccc(C(F)(F)F)c1', 'mL/min/kg', 10),
  ('CC1=C(C#N)[C@@H](c2ccc(C#N)cc2S(C)(=O)=O)N(C(=O)NN(CCO)CCO)C(=O)N1c1cccc(C(F)(F)F)c1', 'mL/min/kg', 28.3);
